Assay: Toxicokinetics in rat toxicity study (IV infusion)
Format: in vivo
Details: plasma; rat, 1 hour IV infusion, 20 mg/kg/dose, Female, Day 1 (first dose)

- smilesInput: "Cc1cnc(CNC(=O)c2c(=O)c3ccc(N4CCCN(C)CC4)nc3n3c2sc2ccccc23)cn1"
  AUC(0-inf), ng·h/mL: 80600

###

Tested on: various cancer cell lines
Assay: Cell viability by Alamar Blue assay
Type: cell-based
Conditions: CCD-1058Sk, Normal
pEC50: −log10 of the molar value.

- smilesInput: "Cc1cnc(CNC(=O)c2c(=O)c3ccc(N4CCCN(C)CC4)nc3n3c2sc2ccccc23)cn1"
  assayedSystem: "various cancer cell lines"
  pEC50: 5.33

###

Test system: various cancer cell lines
Test: Cell viability by Alamar Blue assay
Format: cell-based
Conditions: Homo sapiens, HCT-116, HCT-116, Colon
pEC50: −log10 of the molar value.

- smilesInput: "Cc1cnc(CNC(=O)c2c(=O)c3ccc(N4CCCN(C)CC4)nc3n3c2sc2ccccc23)cn1"
  pEC50: 6.79

###

Assay: Pharmacokinetic study in patients with advanced hematologic cancers (IV infusion, LC/MS/MS)
Assay type: in vivo, human
Settings: human, plasma; 250 mg/m^2 (lyophilized formulation), 1 hour IV infusion, first dose (first cycle), N 2, median

- compound: "Cc1cnc(CNC(=O)c2c(=O)c3ccc(N4CCCN(C)CC4)nc3n3c2sc2ccccc23)cn1 [Compound I]"
  Tmax (h): 1

###

Experiment: Pharmacokinetic study in patients with advanced hematologic cancers (IV infusion, LC/MS/MS)
Format: in vivo, human
Settings: human, plasma; first dose, 25-250 mg/m^2 IV infusion over 1 hour; read-out: Mean elimination half-life
parameterMeasured: half-life

- compound: "Cc1cnc(CNC(=O)c2c(=O)c3ccc(N4CCCN(C)CC4)nc3n3c2sc2ccccc23)cn1 [Compound I]"
  experimentalResult: "23.2 to 83.3 h"

###

Test system: various cancer cell lines
Test: Cell viability by Alamar Blue assay
Format: cell-based
Conditions: SUM190PT, SUM 190PT, IBC (Invasive ductal breast carcinoma (inflammatory))

- smilesInput: "Cc1cnc(CNC(=O)c2c(=O)c3ccc(N4CCCN(C)CC4)nc3n3c2sc2ccccc23)cn1"
  EC50 / nM: 583

###

Test: Toxicokinetics in rat toxicity study (IV infusion)
Assay type: in vivo
Details: plasma; rat, 1 hour IV infusion, 20 mg/kg/dose, Male, Day 1 (first dose); read-out: T1/2 (converted)
parameterMeasured: half-life (h)

- smilesInput: "Cc1cnc(CNC(=O)c2c(=O)c3ccc(N4CCCN(C)CC4)nc3n3c2sc2ccccc23)cn1"
  unitsText: "h"
  experimentalResult: 11.4

###

Test: Pharmacokinetic parameters in preclinical species
Assay type: in vivo, rats
Settings: plasma; Rat (SD), IV, 5 mg/kg, mean of 3 animals

- smilesInput: "Cc1cnc(CNC(=O)c2c(=O)c3ccc(N4CCCN(C)CC4)nc3n3c2sc2ccccc23)cn1"
  Cmax [ng/mL]: 12400

###

Experiment: Pharmacokinetic study in patients with advanced hematologic cancers (IV infusion, LC/MS/MS)
Assay type: in vivo, human
Conditions: human, plasma; 50 mg/m^2 (ready-to-use formulation), 1 hour IV infusion, first dose (first cycle), N 4

- smilesInput: "Cc1cnc(CNC(=O)c2c(=O)c3ccc(N4CCCN(C)CC4)nc3n3c2sc2ccccc23)cn1"
  unitsText: "ng/mL"
  Cmax: 384

###

Experiment: Pharmacokinetic study in patients with advanced hematologic cancers (IV infusion, LC/MS/MS)
Assay type: in vivo, human
Settings: human, plasma; 50 mg/m^2 (ready-to-use formulation), 1 hour IV infusion, first dose (first cycle), N 4; read-out: T1/2 (converted)
parameterMeasured: half-life (h)

- smilesInput: "Cc1cnc(CNC(=O)c2c(=O)c3ccc(N4CCCN(C)CC4)nc3n3c2sc2ccccc23)cn1"
  parameterMeasured: "half-life"
  experimentalResult: 39.8

###

Test: Pharmacokinetic parameters in preclinical species
Format: in vivo, mice
Settings: plasma; Mouse (ICR), IV, 5 mg/kg, mean of 3 animals

- smilesInput: "Cc1cnc(CNC(=O)c2c(=O)c3ccc(N4CCCN(C)CC4)nc3n3c2sc2ccccc23)cn1"
  half-life: "6 h"

###

Test: Toxicokinetics in rat toxicity study (IV infusion)
Format: in vivo
Conditions: plasma; rat, 1 hour IV infusion, 10 mg/kg/dose, Male, Day 1 (first dose)

- compound: "Cc1cnc(CNC(=O)c2c(=O)c3ccc(N4CCCN(C)CC4)nc3n3c2sc2ccccc23)cn1 [Compound I]"
  Cmax [ng/mL]: 4500

###

Test: Pharmacokinetic parameters in preclinical species
Format: in vivo, monkeys
Details: plasma; Monkey, IV, 5.2 mg/kg, mean of 3 animals; read-out: Vss
parameterMeasured: Vd (L/kg)

- compound: "Cc1cnc(CNC(=O)c2c(=O)c3ccc(N4CCCN(C)CC4)nc3n3c2sc2ccccc23)cn1 [Compound I]"
  unitsText: "L/kg"
  experimentalResult: 23

###

Test: Pharmacokinetic study in patients with advanced hematologic cancers (IV infusion, LC/MS/MS)
Type: in vivo, human
Details: human, plasma; 170 mg/m^2 (lyophilized formulation), 1 hour IV infusion, first dose (first cycle), N 3

- smilesInput: "Cc1cnc(CNC(=O)c2c(=O)c3ccc(N4CCCN(C)CC4)nc3n3c2sc2ccccc23)cn1"
  AUC(0-t) (µg·h/mL): 16.8

###

Experiment: Pharmacokinetic study in patients with advanced hematologic cancers (IV infusion, LC/MS/MS)
Format: in vivo, human
Settings: human, plasma; 170 mg/m^2 (lyophilized formulation), 1 hour IV infusion, first dose (first cycle), N 3; read-out: T1/2 (converted)
parameterMeasured: half-life

- smilesInput: "Cc1cnc(CNC(=O)c2c(=O)c3ccc(N4CCCN(C)CC4)nc3n3c2sc2ccccc23)cn1"
  experimentalResult: "45.5 h"

###

Experiment: Pharmacokinetic parameters in preclinical species
Type: in vivo, monkeys
Details: plasma; Monkey, IV, 5.2 mg/kg, mean of 3 animals

- smilesInput: "Cc1cnc(CNC(=O)c2c(=O)c3ccc(N4CCCN(C)CC4)nc3n3c2sc2ccccc23)cn1"
  Cmax (ng/mL): 668

###

Assay: Pharmacokinetic study in patients with advanced hematologic cancers (IV infusion, LC/MS/MS)
Assay type: in vivo, human
Conditions: human, plasma; 100 mg/m^2 (ready-to-use formulation), 1 hour IV infusion, first dose (first cycle), N 4, median
parameterMeasured: Tmax (min)

- smilesInput: "Cc1cnc(CNC(=O)c2c(=O)c3ccc(N4CCCN(C)CC4)nc3n3c2sc2ccccc23)cn1"
  parameterMeasured: "Tmax"
  experimentalResult: 30

###

Assay: Toxicokinetics in rat toxicity study (IV infusion)
Type: in vivo
Conditions: plasma; rat, 1 hour IV infusion, 5 mg/kg/dose, Male, Day 1 (first dose); read-out: T1/2 (converted)

- smilesInput: "Cc1cnc(CNC(=O)c2c(=O)c3ccc(N4CCCN(C)CC4)nc3n3c2sc2ccccc23)cn1"
  unitsText: "min"
  half-life: 420

###

Test: Pharmacokinetic study in patients with advanced hematologic cancers (IV infusion, LC/MS/MS)
Format: in vivo, human
Conditions: human, plasma; 170 mg/m^2 (lyophilized formulation), 1 hour IV infusion, first dose (first cycle), N 3

- smilesInput: "Cc1cnc(CNC(=O)c2c(=O)c3ccc(N4CCCN(C)CC4)nc3n3c2sc2ccccc23)cn1"
  Cmax / ng/mL: 1710

###

Test: Toxicokinetics in rat toxicity study (IV infusion)
Format: in vivo
Conditions: plasma; rat, 1 hour IV infusion, 10 mg/kg/dose, Female, Day 1 (first dose)

- compound: "Cc1cnc(CNC(=O)c2c(=O)c3ccc(N4CCCN(C)CC4)nc3n3c2sc2ccccc23)cn1 [Compound I]"
  Cmax (ng/mL): 3810

###

Assay: Plasma protein binding
Format: in vitro ADME
Details: mouse plasma; read-out: averaged unbound fraction
parameterMeasured: fraction unbound

- compound: "Cc1cnc(CNC(=O)c2c(=O)c3ccc(N4CCCN(C)CC4)nc3n3c2sc2ccccc23)cn1 [Compound I]"
  experimentalResult: 0.002

###

Assay: Toxicokinetics in rat toxicity study (IV infusion)
Format: in vivo
Conditions: plasma; rat, 1 hour IV infusion, 20 mg/kg/dose, Female, Day 1 (first dose); read-out: T1/2 (converted)

- smilesInput: "Cc1cnc(CNC(=O)c2c(=O)c3ccc(N4CCCN(C)CC4)nc3n3c2sc2ccccc23)cn1"
  half-life / min: 1010

###

Experiment: Pharmacokinetic parameters in preclinical species
Format: in vivo, monkeys
Settings: plasma; Monkey, IV, 5.2 mg/kg, mean of 3 animals; read-out: AUC24hr

- molecule: "Cc1cnc(CNC(=O)c2c(=O)c3ccc(N4CCCN(C)CC4)nc3n3c2sc2ccccc23)cn1 [Compound I]"
  AUC(0-t) / ng·h/mL: 2370

###

Assay: Toxicokinetics in rat toxicity study (IV infusion)
Assay type: in vivo
Settings: plasma; rat, 1 hour IV infusion, 10 mg/kg/dose, Female, Day 1 (first dose)
parameterMeasured: AUC(0-inf)

- molecule: "Cc1cnc(CNC(=O)c2c(=O)c3ccc(N4CCCN(C)CC4)nc3n3c2sc2ccccc23)cn1 [Compound I]"
  experimentalResult: "44.8 µg·h/mL"
